# systemTested: T1, human GalR2 (human, UniProt O43603 1-387)
# T1 sequence (looked up): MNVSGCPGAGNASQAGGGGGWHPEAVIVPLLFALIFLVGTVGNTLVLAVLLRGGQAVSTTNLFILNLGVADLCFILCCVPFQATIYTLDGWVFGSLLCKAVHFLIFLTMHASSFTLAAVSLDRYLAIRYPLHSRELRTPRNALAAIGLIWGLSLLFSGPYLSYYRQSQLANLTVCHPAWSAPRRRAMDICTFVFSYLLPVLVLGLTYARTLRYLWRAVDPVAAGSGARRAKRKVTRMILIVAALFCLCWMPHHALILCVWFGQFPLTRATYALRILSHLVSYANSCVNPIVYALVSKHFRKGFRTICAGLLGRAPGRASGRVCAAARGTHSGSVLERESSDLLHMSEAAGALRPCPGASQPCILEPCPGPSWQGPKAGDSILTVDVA
# assayOverview: cell-based or functional assay
No end group written: not given here.
assayReadout: Calcium pEC50 (pEC50)
Give a bare numeral; the unit pEC50 is implied.

1. WTLNSAGYLLGPHAIDNHRSFHDKYGLA [Galanin 2-29 (rat)]	9.2
2. GWTLNSAGYLLGPQPPGFSPFR [M617]	9.6
3. WTLNSAGYLLGPKKKKK (also: PEG (dPEG24) on one lysine, site not given here) [Nax409-9]	6.9
4. GWTLNSAGYLLGPHA [Galanin 1-15]	8.6
5. WTLNSAGYLL [Galanin 2-11]	7.6

Switching to the query record.
Given the binder RGRGNWTLNSAGYLLGPVLPPPALALA [M1145] , what is its reported Calcium pEC50?
8.9
